Tested on: Cavia porcellus
Method: Ex vivo inhibition of collagen-induced platelet aggregation in guinea pig after p.o. administration.
Measure: ED50

{"Compound": "CCOC(=O)CCN1CCN(C[C@@H]2CN(c3ccc(C(=N)NC(=O)c4ccccc4)cc3)C(=O)O2)CC1", "Readout value": "> 1 mg/kg"}
{"Compound": "COC(=O)CN1CCN(C[C@@H]2CN(c3ccc(C(=N)NC(=O)OC)cc3)C(=O)O2)CC1", "Readout value": "0.1 mg/kg"}
{"Compound": "CCOC(=O)CN1CCN(C[C@@H]2CN(c3ccc(C(=N)NC(=O)OCc4ccccc4)cc3)C(=O)O2)CC1", "Readout value": "< 1 mg/kg"}
{"Compound": "CCOC(=O)CN1CCN(C[C@@H]2CN(c3ccc(C(=N)N)cc3)C(=O)O2)CC1", "Readout value": "> 1 mg/kg"}
{"Compound": "CCOC(=O)CN1CCN(CC2CN(c3ccc(C(=N)NC(=O)c4ccco4)cc3)C(=O)O2)CC1 (configuration not stated)", "Readout value": "< 1 mg/kg"}
{"Compound": "CCOC(=O)CN1CCN(C[C@@H]2CN(c3ccc(C(=N)NC(=O)c4cccc(C(F)(F)F)c4)cc3)C(=O)O2)CC1", "Readout value": "< 1 mg/kg"}
{"Compound": "CC(C)(C)OC(=O)CN1CCN(C[C@@H]2CN(c3ccc(C(=N)NC(=O)c4ccccc4)cc3)C(=O)O2)CC1", "Readout value": "1 mg/kg"}

* * *

Reported ED50 by item:
Test system: Cavia porcellus
Method: Ex vivo inhibition of collagen-induced platelet aggregation in guinea pig after p.o. administration.

{"Molecular string": "CCOC(=O)CN1CCN(C[C@@H]2CN(c3ccc(C(=N)NC(=O)OC)cc3)C(=O)O2)CC1", "Test target": "Cavia porcellus", "ED50": "0.2 mg/kg"}
{"Molecular string": "CCOC(=O)CN1CCN(C[C@H]2CN(c3ccc(C(=N)NC(=O)c4ccccc4)cc3)C(=O)O2)CC1", "Test target": "Cavia porcellus", "ED50": "> 1 mg/kg"}
{"Molecular string": "CCOC(=O)CCN1CCN(C[C@H]2CN(c3ccc(C(=N)NC(=O)c4ccccc4)cc3)C(=O)O2)CC1", "Test target": "Cavia porcellus", "ED50": "> 10 mg/kg"}
{"Molecular string": "N/C(=N/C(=O)c1ccccc1)c1ccc(N2C[C@@H](CN3CCN(CC(=O)O)CC3)OC2=O)cc1", "Test target": "Cavia porcellus", "ED50": "> 10 mg/kg"}

* * *

System: Cavia porcellus
Method: Ex vivo inhibition of collagen-induced platelet aggregation in guinea pig after p.o. administration.
Measure: ED50 (mg/kg)

{"Compound": "CC(C)(C)OC(=O)CCN1CCN(CC2CN(c3ccc(C(=N)NC(=O)c4ccccc4)cc3)C(=O)O2)CC1 (centres undefined)", "Quantity unit": "mg/kg", "Limit qualifier": ">", "Readout value": 10}
{"Compound": "CCOC(=O)CN1CCN(C[C@@H]2CN(c3ccc(C(=N)NC(=O)C(C)C)cc3)C(=O)O2)CC1", "Quantity unit": "mg/kg", "Limit qualifier": "=", "Readout value": 0.4}
{"Compound": "COC(=O)/N=C(/N)c1ccc(N2CC(CN3CCN(CC(=O)OC(C)(C)C)CC3)OC2=O)cc1 (centres undefined)", "Quantity unit": "mg/kg", "Limit qualifier": ">", "Readout value": 1}
{"Compound": "CCOC(=O)CN1CCN(C[C@@H]2CN(c3ccc(C(=N)NC(=O)OCC)cc3)C(=O)O2)CC1", "Quantity unit": "mg/kg", "Limit qualifier": "=", "Readout value": 0.17}
